These data points were gathered from patent US20240116985A1.

So I've got a bunch of compounds here, and I need their CHI Log D values.
- assay.procedure: CHI Log D procedure
- Type: physicochemical
- experimental.context: pH 7.4
Reply with the value as a number alone.

Query (compound): CC(=O)N1CCC[C@]12CC=CCCCC1(CCCC=CCCCCCC[C@@](C)(C(=O)N[C@@H](Cc3ccccc3)C(=O)N[C@@H](Cc3csc4ccccc34)C(=O)N[C@@H](Cc3cn(C)cn3)C(N)=O)NC(=O)[C@H](CC(N)=O)NC(=O)[C@H](Cc3ccccc3)NC(=O)[C@H](C)NC(=O)[C@H](C)NC(=O)[C@H](CCC(=O)O)NC(=O)[C@H](CC(=O)O)NC1=O)NC(=O)[C@H](C)NC(=O)[C@H](CC(=O)O)NC2=O (stereo partly drawn) [I-478] ; field requested: CHI Log D
2.052

Query (compound): CC(=O)N1CCC[C@]12CC=CCCCC1(CCCC=CCCCCCC[C@@](C)(C(=O)N[C@@H](Cc3ccccc3Cl)C(=O)N[C@@H](Cc3csc4ccccc34)C(=O)N[C@@H](CCO)C(N)=O)NC(=O)[C@H](CO)NC(=O)[C@H](Cc3ccccc3)NC(=O)[C@H](C)NC(=O)[C@H](C)NC(=O)[C@H](CN(CC(=O)O)CC(F)(F)F)NC(=O)[C@H](CC(=O)O)NC1=O)NC(=O)[C@H](CC(C)(C)C)NC(=O)[C@H](CC(=O)O)NC2=O (stereo partly drawn) [I-998] ; field requested: CHI Log D
2.87

Query (compound): CC(=O)N1CCC[C@]12CC=CCCCC1(CCCC=CCCCCCC[C@@](C)(C(=O)N[C@@H](Cc3ccccc3)C(=O)N[C@@H](Cc3csc4ccccc34)C(=O)N[C@@H](CC(N)=O)C(N)=O)NC(=O)[C@H](CC(N)=O)NC(=O)[C@H](Cc3ccccc3)NC(=O)[C@H](C)NC(=O)[C@H](C)NC(=O)[C@H](CCC(=O)O)NC(=O)[C@H](CC(=O)O)NC1=O)NC(=O)[C@H](CC(C)C)NC(=O)[C@H](CC(=O)O)NC2=O (stereo partly drawn) [I-752] ; field requested: CHI Log D
2.419

Query (compound): CC[C@H](C)[C@@H]1NC(=O)[C@H](CC(=O)O)NC(=O)[C@]2(CC=CCCCC3(CCCC=CCOC(=O)N(C)CCC[C@@](C)(C(=O)N[C@@H](Cc4ccccc4)C(=O)N[C@@H](Cc4c[nH]c5ccccc45)C(=O)N[C@@H](Cc4c[nH]cn4)C(N)=O)NC(=O)[C@H](CCC(N)=O)NC(=O)[C@H](Cc4ccccc4)NC(=O)[C@H](C)NC(=O)[C@H](C)NC(=O)[C@H](CC(=O)O)NC(=O)[C@H](CC(=O)O)NC3=O)NC1=O)CCCN2C(C)=O (stereo partly drawn) [I-189] ; field requested: CHI Log D
1.611

Query (compound): CC(=O)N1CCC[C@]12CC=CCCCC1(CCCC=CCCCCCC[C@@](C)(C(=O)N[C@@H](Cc3ccccc3)C(=O)N[C@@H](Cc3csc4ccccc34)C(=O)N[C@@H](CCC(N)=O)C(N)=O)NC(=O)[C@H](CC(N)=O)NC(=O)[C@H](Cc3cccs3)NC(=O)[C@H](C)NC(=O)[C@H](C)NC(=O)[C@H](CCC(=O)O)NC(=O)[C@H](CC(=O)O)NC1=O)NC(=O)[C@H](C)NC(=O)[C@H](CC(=O)O)NC2=O (stereo partly drawn) [I-447] ; field requested: CHI Log D
1.996

Query (compound): CC[C@H](C)[C@@H]1NC(=O)[C@H](CC(=O)O)NC(=O)[C@]2(CC=CCCCC3(CCCC=CCCCCCC[C@@](C)(C(=O)N[C@@H](Cc4ccccc4OC)C(=O)N[C@@H](Cc4csc5ccccc45)C(=O)N[C@@H](CCC(N)=O)C(N)=O)NC(=O)[C@H](CCC(N)=O)NC(=O)[C@H](Cc4ccccc4)NC(=O)[C@H](C)NC(=O)[C@H](C)NC(=O)[C@H](CCC(=O)O)NC(=O)[C@H](CC(=O)O)NC3=O)NC1=O)CCCN2C(C)=O (stereo partly drawn) [I-528] ; field requested: CHI Log D
2.395
